system: SW684 (Other Solid Carcinomas); assay: Bliss excess, mean over the matrix (fraction); higher = more synergy;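 also: after 72 h of two-drug dosing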
readout type: Bliss excess
Respond using a number only.

Bliss excess reading for Cc1cc2ncnn2cc1Nc1ncc2c(n1)n(C1CCOCC1)c(=O)n2C [AZD7648] + CN(C)CCCOc1ccc(-c2ccc3ncc4c(c3c2)n(C2CCOCC2)c(=O)n4C)cn1 [AZD0156] (first compound max 10 µM, 7x7, partner max 1 µM) : -0.056

---

tested on: NCI-H1755 (Lung Adenocarcinoma); test: Bliss excess, mean over the matrix (fraction); higher = more synergy
# Bliss excess annotations

compound | target | result
Cn1cnc2c(F)c(Nc3ccc(Br)cc3Cl)c(C(=O)NOCCO)cc21 [Selumetinib] + CCN(CCO)CCCOc1ccc2c(Nc3cc(CC(=O)Nc4cccc(F)c4)[nH]n3)ncnc2c1 [AZD2811] (first compound max 10 µM, 7x7, partner max 1 µM) | NCI-H1755 (Lung Adenocarcinoma) | 0.0386
Cc1c2c(nn1C)CSCc1cc(n(C)n1)CSc1cc(c3ccccc3c1)OCCCc1c(C(=O)O)n(C)c3c-2c(Cl)ccc13 [AZD5991] + CC1(C)CCC(CN2CCN(c3ccc(C(=O)NS(=O)(=O)c4ccc(NCC5CCOCC5)c([N+](=O)[O-])c4)c(Oc4cnc5[nH]ccc5c4)c3)CC2)=C(c2ccc(Cl)cc2)C1 [Venetoclax] (first compound max 1 µM, 7x7, partner max 1 µM) | NCI-H1755 (Lung Adenocarcinoma) | -0.0422
COc1nnc2ccc(N3CCC(c4ccc(OCCN5CCN(C)C(=O)[C@H]5C)cc4)CC3)nn12 [AZD5153] + CC1(C)CCC(CN2CCN(c3ccc(C(=O)NS(=O)(=O)c4ccc(NCC5CCOCC5)c([N+](=O)[O-])c4)c(Oc4cnc5[nH]ccc5c4)c3)CC2)=C(c2ccc(Cl)cc2)C1 [Venetoclax] (first compound max 1 µM, 7x7, partner max 1 µM) | NCI-H1755 (Lung Adenocarcinoma) | -0.0416
N#Cc1cnc(Nc2cc(NC[C@H]3CNCCO3)c(C(F)(F)F)cn2)cn1 [SRA737] + Nc1ccn([C@@H]2O[C@H](CO)[C@@H](O)C2(F)F)c(=O)n1 [Gemcitabine] (first compound max 10 µM, 7x7, partner max 0.3 µM) | NCI-H1755 (Lung Adenocarcinoma) | 0.0184

Cc1c2c(nn1C)CSCc1cc(n(C)n1)CSc1cc(c3ccccc3c1)OCCCc1c(C(=O)O)n(C)c3c-2c(Cl)ccc13 [AZD5991] + CC(=O)O[C@H]1C(=O)[C@@]2(C)[C@H]([C@H](OC(=O)c3ccccc3)[C@]3(O)C[C@H](OC(=O)[C@H](O)[C@@H](NC(=O)c4ccccc4)c4ccccc4)C(C)=C1C3(C)C)[C@]1(OC(C)=O)CO[C@@H]1C[C@@H]2O [Paclitaxel] (first compound max 1 µM, 7x7, partner max 3 µM) has a reported Bliss excess of -0.0385

Recorded Bliss excess (compound C=CCn1c(=O)c2cnc(Nc3ccc(N4CCN(C)CC4)cc3)nc2n1-c1cccc(C(C)(C)O)n1 [AZD1775] + C1CN(CCC1(C(=O)N[C@@H](CCO)C2=CC=C(C=C2)Cl)N)C3=NC=NC4=C3C=CN4 [Capivasertib] (first compound max 3 µM, partner max 3 µM) ): -0.0691

---

test system: SNU-175 (Colorectal Carcinoma); experiment: Bliss excess, mean over the matrix (fraction); higher = more synergy
Below is a list of entries, each paired with its recorded Bliss excess value.
Reply: number alone, nothing else.

compound | numeric result
Cc1cc2ncnn2cc1Nc1ncc2c(n1)n(C1CCOCC1)c(=O)n2C [AZD7648] + C=CCn1c(=O)c2cnc(Nc3ccc(N4CCN(C)CC4)cc3)nc2n1-c1cccc(C(C)(C)O)n1 [AZD1775] (first compound max 10 µM, partner max 1 µM) | -0.0043
CC1(C)CCC(CN2CCN(c3ccc(C(=O)NS(=O)(=O)c4ccc(NCC5CCOCC5)c([N+](=O)[O-])c4)c(Oc4cnc5[nH]ccc5c4)c3)CC2)=C(c2ccc(Cl)cc2)C1 [Venetoclax] + Cn1cnc2c(F)c(Nc3ccc(Br)cc3Cl)c(C(=O)NOCCO)cc21 [Selumetinib] (first compound max 1 µM, 7x7, partner max 3 µM) | -0.0157

Lab note: COc1cccc2c1C(=O)c1c(O)c3c(c(O)c1C2=O)C[C@@](O)(C(=O)CO)C[C@@H]3O[C@H]1C[C@H](N)[C@H](O)[C@H](C)O1 [Doxorubicin] + Cc1cc2ncnn2cc1Nc1ncc2c(n1)n(C1CCOCC1)c(=O)n2C [AZD7648] (first compound max 1 µM, 7x7, partner max 10 µM) gave Bliss excess of 0.0265

// sample Cn1cnc2c(F)c(Nc3ccc(Br)cc3Cl)c(C(=O)NOCCO)cc21 [Selumetinib] + C[C@@H]1COCCN1C2=NC(=NC(=C2)C3(CC3)[S@](=N)(=O)C)C4=C5C=CNC5=NC=C4 [AZD6738] (first compound max 10 µM, 7x7, partner max 10 µM) , its Bliss excess was 0.0644

For reference, reported Bliss excess for CC1(C)CCC(CN2CCN(c3ccc(C(=O)NS(=O)(=O)c4ccc(NCC5CCOCC5)c([N+](=O)[O-])c4)c(Oc4cnc5[nH]ccc5c4)c3)CC2)=C(c2ccc(Cl)cc2)C1 [Venetoclax] + C[C@@H](Nc1cc(F)cc(F)c1)c1cc(C(=O)N(C)C)cc2c(=O)cc(N3CCOCC3)oc12 [AZD8186] (first compound max 1 µM, 7x7, partner max 3 µM) stands at -0.0201

Recorded result, COc1nnc2ccc(N3CCC(c4ccc(OCCN5CCN(C)C(=O)[C@H]5C)cc4)CC3)nn12 [AZD5153] + CN(CC[C@H](CSC1=CC=CC=C1)NC2=C(C=C(C=C2)S(=O)(=O)NC(=O)C3=CC=C(C=C3)N4CCC(CC4)[C@H](C5=CC=CC=C5C6=CC=C(C=C6)Cl)O)S(=O)(=O)C(F)(F)F)CCO [AZD4320] (first compound max 1 µM, 7x7, partner max 1 µM) , Bliss excess: 0.002
